# credit: patent US20100305174A1

# tested-target: DPP IV (Homo sapiens, UniProt P27487)
# Construct: using human plasma as a source of DPP IV; from tissue; host or cells: human plasma
# Sequence (P27487 39-766 limits assumed): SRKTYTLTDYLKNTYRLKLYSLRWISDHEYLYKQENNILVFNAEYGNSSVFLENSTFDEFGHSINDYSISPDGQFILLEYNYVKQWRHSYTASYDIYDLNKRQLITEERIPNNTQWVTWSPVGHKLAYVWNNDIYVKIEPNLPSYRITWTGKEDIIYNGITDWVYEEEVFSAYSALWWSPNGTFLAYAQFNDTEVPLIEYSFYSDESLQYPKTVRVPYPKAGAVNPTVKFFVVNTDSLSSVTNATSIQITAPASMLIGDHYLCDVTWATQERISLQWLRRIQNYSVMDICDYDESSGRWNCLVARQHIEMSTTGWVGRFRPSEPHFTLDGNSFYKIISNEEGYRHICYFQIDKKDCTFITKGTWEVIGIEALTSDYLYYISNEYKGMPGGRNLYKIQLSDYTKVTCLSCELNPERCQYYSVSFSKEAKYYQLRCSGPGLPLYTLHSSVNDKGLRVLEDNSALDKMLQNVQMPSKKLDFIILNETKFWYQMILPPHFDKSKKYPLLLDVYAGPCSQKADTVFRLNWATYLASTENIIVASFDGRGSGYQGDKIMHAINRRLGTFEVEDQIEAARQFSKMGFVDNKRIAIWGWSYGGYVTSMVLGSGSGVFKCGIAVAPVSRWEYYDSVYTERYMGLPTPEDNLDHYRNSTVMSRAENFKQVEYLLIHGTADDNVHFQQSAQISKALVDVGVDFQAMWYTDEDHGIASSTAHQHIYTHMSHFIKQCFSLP
# protocol-description: DPP IV assay (human plasma as source, H-gly-pro AMC substrate)
# Assay type: biochemical
# measurement-context: 1 μM, compared to vehicle control
# Procedure: DPP IV assay is carried by using human plasma as a source of DPP IV. The compounds were incubated at a concentration of 1 and 10 μM in assay buffer containing DPP IV enzyme. […] The plates were read in a spectrofluorimeter to get RFU on setting excitation wavelength of 360 nm and emission wavelength of 460 nm. Percentage inhibition is calculated as compared to vehicle control.
measured-property: inhibition at 1 µM (%)

Recorded inhibition at 1 µM, per entry:
Query :: Quick one: inhibition at 1 µM of CCN1C(=O)OCC1Cc1ccc(Oc2ccc(/C=C3\C(=O)Nc4ccccc43)cc2C(F)(F)F)cc1 (stereo not shown) ?
Result :: 7.07

Query :: Quick one: inhibition at 1 µM of CN1C(=O)OCC1Cc1ccc(Oc2ccc(/C=C3/SC(=S)NC3=O)cc2C(F)(F)F)cc1 (stereo not shown) ?
Result :: 1.99

(P) O=C1NC(Cc2ccc(Oc3ccc(/C=C4/SC(=O)NC4=O)cc3F)cc2)CO1 (stereo not shown)
(Q) CN1C(=O)OCC1Cc1ccc(Oc2ccc(CC3C(=O)Nc4ccccc43)cc2C(F)(F)F)cc1 (stereo not shown)
Query :: Select one: P or Q . Criterion: greater recorded inhibition at 1 µM. Please reply using the label of the selected record.
Result :: P

###

# Test system: IL-1β
# protocol-description: IL-1β inhibition in LPS-challenged human PBMC
# Assay type: cell-based
# measurement-context: Homo sapiens, PBMC; 10 μM, LPS 100 ng/mL, 20 hours; read-out: % Inhibition IL1beta
Item-by-item account of inhibition at 10 µM
Respond numerically; units are % and should not be typed.

Recorded inhibition at 10 µM, per entry:
Query :: Quick one: inhibition at 10 µM of CCN1C(=O)OCC1Cc1ccc(Oc2ccc(CC3C(=O)Nc4ccccc43)cc2OC)cc1 (centres unmarked) [Example 69] ?
Result :: 39.7

Query :: Quick one: inhibition at 10 µM of CN1C(=O)OCC1Cc1ccc(Oc2ccc(CC3C(=O)Nc4ccccc43)cc2)cc1 (centres unmarked) [Example 64] ?
Result :: 25.9

Query :: Quick one: inhibition at 10 µM of CN1C(=O)OCC1Cc1ccc(Oc2ccc(/C=C3\C(=O)Nc4ccccc43)cc2C(F)(F)F)cc1 (centres unmarked) [Example 14] ?
Result :: 32.1

Query :: Quick one: inhibition at 10 µM of CN1C(=O)OCC1Cc1ccc(Oc2ccc(/C=C3\C(=O)Nc4ccccc43)cc2)cc1 (centres unmarked) [Example 4] ?
Result :: 10.7

Next up:
Query :: Quick one: inhibition at 10 µM of COc1cc(CC2C(=O)Nc3ccccc32)ccc1Oc1ccc(CC2COC(=O)N2C)cc1 (centres unmarked) [Example 67] ?
Result :: 20.9

###

# tested-target: DPP IV (Homo sapiens)
# Construct: using human plasma as a source of DPP IV; from tissue; host or cells: human plasma
# protocol-description: DPP IV assay (human plasma as source, H-gly-pro AMC substrate)
# Assay type: biochemical
# measurement-context: 10 μM, compared to vehicle control
measured-property: inhibition at 10 µM (%)

Recorded inhibition at 10 µM, per entry:
Query :: Record CN1C(=O)OCC1Cc1ccc(Oc2ccc(CC3C(=O)Nc4ccccc43)cc2C(F)(F)F)cc1 (centres unmarked) : what is its inhibition at 10 µM with DPP IV (Homo sapiens)?
Result :: 7.64

Query :: Record CN1C(=O)OCC1Cc1ccc(Oc2ccc(/C=C3/C(=O)Nc4ccccc43)cc2F)cc1 (centres unmarked) : what is its inhibition at 10 µM with DPP IV (Homo sapiens)?
Result :: 7.75

Query :: Record CN1C(=O)OCC1Cc1ccc(Oc2ccc(/C=C3\C(=O)Nc4ccccc43)cc2C(F)(F)F)cc1 (centres unmarked) : what is its inhibition at 10 µM with DPP IV (Homo sapiens)?
Result :: 7.42

Query :: Record O=C1NC(Cc2ccc(Oc3ccc(/C=C4/SC(=O)NC4=O)cc3F)cc2)CO1 (centres unmarked) : what is its inhibition at 10 µM with DPP IV (Homo sapiens)?
Result :: 7.25

Query :: Record CCN1C(=O)OCC1Cc1ccc(Oc2ccc(/C=C3/SC(=S)NC3=O)cc2C(F)(F)F)cc1 (centres unmarked) : what is its inhibition at 10 µM with DPP IV (Homo sapiens)?
Result :: 12.4

(A) CCN1C(=O)OCC1Cc1ccc(Oc2ccc(/C=C3\C(=O)Nc4ccccc43)cc2C(F)(F)F)cc1 (centres unmarked)
(B) CN1C(=O)OCC1Cc1ccc(Oc2ccc(/C=C3/SC(=S)NC3=O)cc2)cc1 (centres unmarked)
Query :: Select one: A or B . Criterion: greater recorded inhibition at 10 µM. Please reply using the label of the selected record.
Result :: A
(A: 9.86%, B: -0.7%)
